system-name: Tyrosine-protein phosphatase non-receptor type 1 (Homo sapiens)
Sequence (P18031 whole entry): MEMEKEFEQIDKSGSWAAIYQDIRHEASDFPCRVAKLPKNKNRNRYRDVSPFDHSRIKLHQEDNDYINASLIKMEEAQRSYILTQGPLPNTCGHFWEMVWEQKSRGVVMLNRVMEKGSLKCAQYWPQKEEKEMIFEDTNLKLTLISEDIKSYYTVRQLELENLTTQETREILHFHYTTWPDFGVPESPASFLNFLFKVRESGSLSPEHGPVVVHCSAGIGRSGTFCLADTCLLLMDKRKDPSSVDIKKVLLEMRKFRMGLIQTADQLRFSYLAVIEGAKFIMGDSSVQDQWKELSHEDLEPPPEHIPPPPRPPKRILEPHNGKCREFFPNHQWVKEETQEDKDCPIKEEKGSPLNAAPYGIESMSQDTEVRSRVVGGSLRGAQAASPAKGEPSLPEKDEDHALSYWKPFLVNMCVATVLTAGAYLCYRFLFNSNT
protocol-notes: Inhibition of recombinant human GST-tagged PTP1B catalytic domain using para-nitrophenyl phosphate as substrate
assay-metric: IC50 (µM)
Give bare numbers, in µM.

Q: Please list IC50 recorded for the compound `CC(=O)CC[C@@H]1C[C@@]2(OC1(C)C)C(=O)CC[C@@]2(C)O`
Ans: 46.3
